target: D3R (Homo sapiens (Human), UniProt P35462); assay: D3 Mitogenesis Functional Assay (3H-thymidine uptake, CHOp-D3 cells); type: cell-based; settings: inhibition of quinpirole stimulation of mitogenesis
Sequence (P35462 whole entry): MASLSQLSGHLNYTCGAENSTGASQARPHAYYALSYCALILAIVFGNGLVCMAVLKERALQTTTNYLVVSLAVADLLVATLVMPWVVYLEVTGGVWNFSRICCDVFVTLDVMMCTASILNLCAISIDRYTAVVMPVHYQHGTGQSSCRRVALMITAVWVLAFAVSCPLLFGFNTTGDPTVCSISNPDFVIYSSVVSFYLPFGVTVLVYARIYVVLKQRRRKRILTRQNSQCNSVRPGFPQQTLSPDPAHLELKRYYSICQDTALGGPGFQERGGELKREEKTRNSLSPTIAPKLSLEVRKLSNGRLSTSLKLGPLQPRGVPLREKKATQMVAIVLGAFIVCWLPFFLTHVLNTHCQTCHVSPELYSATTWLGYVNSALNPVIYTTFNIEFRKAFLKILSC
Provide the reported D3 Antagonist Imax of each item.
Numbers only, in %.

Below, each entry is followed by its recorded D3 Antagonist Imax result.
>  <smiles-string>
CC(C)(C)c1nc(N2CCN(CCCCNC(=O)N3CCN(c4ncccn4)CC3)CC2)cc(C(F)(F)F)n1

>  <tested-target>
D3R (Homo sapiens (Human), UniProt P35462)

>  <result-unit>
%

>  <D3 Antagonist Imax>
84.4

$$$$
>  <smiles-string>
O=C(NCCCCN1CCN(c2cccc(Cl)c2Cl)CC1)N1CCN(c2ccccc2)CC1

>  <tested-target>
D3R (Homo sapiens (Human), UniProt P35462)

>  <result-unit>
%

>  <D3 Antagonist Imax>
93.1

$$$$
>  <smiles-string>
CC(C)(C)c1nc(N2CCN(CCCCNC(=O)N3CCN(c4ccccc4)CC3)CC2)cc(C(F)(F)F)n1

>  <tested-target>
D3R (Homo sapiens (Human), UniProt P35462)

>  <result-unit>
%

>  <D3 Antagonist Imax>
88.2

$$$$

Then there is this molecule:
Measured D3 Antagonist Imax for this entry CC(C)(C)c1nc(N2CCN(CCCCNC(=O)N3CCC(c4ccccc4)CC3)CC2)cc(C(F)(F)F)n1 on D3R (Homo sapiens (Human), UniProt P35462): 81.2

---

Target: human D3 dopamine receptor (Homo sapiens (Human))
Assay: Radioligand binding (125I-IABN competition), D3
Settings: calculated D2 Ki/D3 Ki
Experimental: The affinities of the target compounds were determined using radioligand binding experiments. […] Competition curves were modeled for a single site. Data from competition dose-response curves were analyzed using Tablecurve program (Jandel). IC50 values were converted to equilibrium dissociation constants (Ki values) using the Cheng and Prusoff correction.
Task for the reader: assign each of the following compounds its reported D2/D3 (D3 selectivity ratio, D2 Ki/D3 Ki).
One number for each entry.

Past entries and their recorded results:
>  <smiles-string>
CC(C)(C)c1nc(N2CCN(CCCCNC(=O)N3CCN(CC=Cc4ccccc4)CC3)CC2)cc(C(F)(F)F)n1

>  <value-reported>
9

$$$$
>  <smiles-string>
Cc1cc(N2CCN(CCCCNC(=O)N3CCC(n4c(=O)[nH]c5ccccc54)CC3)CC2)nc(C(C)(C)C)n1

>  <value-reported>
93

$$$$
>  <smiles-string>
CC(C)(C)c1nc(N2CCN(CCCCNC(=O)N3CCN(Cc4ccccc4)CC3)CC2)cc(C(F)(F)F)n1

>  <value-reported>
32

$$$$
>  <smiles-string>
CC(C)(C)c1nc(N2CCN(CCCCNC(=O)c3cn4ccncc4n3)CC2)cc(C(F)(F)F)n1

>  <value-reported>
56

$$$$
>  <smiles-string>
O=C(NCCCCN1CCN(c2ccnc3ccccc23)CC1)c1cn2ccccc2n1

>  <value-reported>
28

$$$$
>  <smiles-string>
CC(C)(C)c1nc(N2CCN(CCCCNC(=O)N3CCC(n4c(=O)[nH]c5ccccc54)CC3)CC2)cc(C(F)(F)F)n1

>  <value-reported>
20

$$$$

Entry Cc1nc(N2CCN(CCCCNC(=O)N3CCc4[nH]c5ccc(C(F)(F)F)cc5c4C3)CC2)cc(C(C)(C)C)n1 , D2/D3 (D3 selectivity ratio, D2 Ki/D3 Ki) reported as 6

---

biological target: D3R (Homo sapiens (Human), UniProt P35462); test: D3 Mitogenesis Functional Assay (3H-thymidine uptake, CHOp-D3 cells); format: cell-based; conditions: inhibition of quinpirole stimulation of mitogenesis
Record form. Attribute: D3 Antagonist Imax. Fill in for each entry.
Numbers only, in %.

Batch: D3 Antagonist Imax for all items listed.
1. O=C(NCCCCN1CCN(c2ccnc3ccccc23)CC1)c1cn2ccccc2n1
2. CC(C)(C)c1nc(N2CCN(CCCCNC(=O)N3CCN(c4ccccn4)CC3)CC2)cc(C(F)(F)F)n1
3. O=C(NCCCCN1CCN(c2cccc(Cl)c2Cl)CC1)N1CCC(c2ccccc2)CC1
4. CC(C)(C)c1nc(N2CCN(CCCCNC(=O)c3cn4ccncc4n3)CC2)cc(C(F)(F)F)n1

A)
[97.2, 83.8, 96.8, 94.7]

---

target: human D3 dopamine receptor (Homo sapiens (Human)); experiment: Radioligand binding (125I-IABN competition), D3; conditions: calculated D2 Ki/D3 Ki
parameter: D2/D3 (D3 selectivity ratio, D2 Ki/D3 Ki)
Answers are plain numbers.

>  <compound>
CC(C)(C)c1nc(N2CCN(CCCCNC(=O)N3CCCN(c4ccccc4)CC3)CC2)cc(C(F)(F)F)n1

>  <value-reported>
11

$$$$

Look at each compound and report its D2/D3 (D3 selectivity ratio, D2 Ki/D3 Ki).
1. CC(C)(C)c1nc(N2CCN(CCCCNC(=O)N3CCN(c4cccc(Cl)c4Cl)CC3)CC2)cc(C(F)(F)F)n1
2. CC(C)(C)c1nc(N2CCN(CCCCNC(=O)N3CCc4[nH]c5ccc(C(F)(F)F)cc5c4C3)CC2)cc(C(F)(F)F)n1
3. CC(C)(C)c1nc(N2CCN(CCCCNC(=O)N3CCC(Oc4ccccc4)CC3)CC2)cc(C(F)(F)F)n1
4. CC(C)(C)c1nc(N2CCN(CCCCNC(=O)N3CCN(C4CCCCC4)CC3)CC2)cc(C(F)(F)F)n1

A)
31
7
29
7

---

target: human D3 dopamine receptor (Homo sapiens (Human), UniProt P35462)
Sequence (P35462 whole entry): as above
Ki less than 20 nM is Criterion met; Ki greater than or equal to 20 nM is Criterion not met.

>  <compound>
COc1ccc(N2CCN(C(=O)NCCCCN3CCN(c4cc(C(F)(F)F)nc(C(C)(C)C)n4)CC3)CC2)cc1 [Compound 21]

>  <label>
Criterion met

$$$$
>  <compound>
CC(C)(C)c1nc(N2CCN(CCCCNC(=O)N3CCC(c4ccccc4)CC3)CC2)cc(C(F)(F)F)n1 [Compound 48]

>  <label>
Criterion met

$$$$
>  <compound>
CC(C)(C)c1cc(N2CCN(CCCCNC(=O)N3CCN(S(=O)(=O)c4ccccc4)CC3)CC2)nc(C(C)(C)C)n1 [Compound 78]

>  <label>
Criterion not met

$$$$
>  <compound>
CC(C)(C)c1nc(N2CCN(CCCCNC(=O)N3CCN(c4cccc(Cl)c4)CC3)CC2)cc(C(F)(F)F)n1 [Compound 15]

>  <label>
Criterion met

$$$$

Q) Strictly below 20 nM in Ki? CC(C)(C)c1nc(N2CCN(CCCCNC(=O)N3CCN(c4ccnc5ccccc45)CC3)CC2)cc(C(F)(F)F)n1 [Compound 34]
A) Criterion met

Q) Given CC(C)(C)c1cc(N2CCN(CCCCNC(=O)N3CCN(c4ccccc4)CC3)CC2)nc(C(C)(C)C)n1 [Compound 10] , is recorded Ki strictly lower than 20 nM?
A) Criterion met

Q) I'd appreciate it if you could check whether CC(C)(C)c1nc(N2CCN(CCCCNC(=O)N3CCN(c4ccc(-c5ccccc5)cc4)CC3)CC2)cc(C(F)(F)F)n1 [Compound 45] has Ki smaller than 20 nM.
A) Criterion not met

Q) Is 20 nM strictly greater than the compound's reported Ki? compound: CC(C)(C)c1nc(N2CCN(CCCCNC(=O)N3CCN(c4ccc(C(F)(F)F)cc4)CC3)CC2)cc(C(F)(F)F)n1 [Compound 28]
A) Criterion met

---

molecular target: human D2-long dopamine receptor (Homo sapiens (Human)); test: Radioligand binding (125I-IABN competition), D2; conditions: HEK cell membranes expressing human D2-long
Sequence (P14416 whole entry): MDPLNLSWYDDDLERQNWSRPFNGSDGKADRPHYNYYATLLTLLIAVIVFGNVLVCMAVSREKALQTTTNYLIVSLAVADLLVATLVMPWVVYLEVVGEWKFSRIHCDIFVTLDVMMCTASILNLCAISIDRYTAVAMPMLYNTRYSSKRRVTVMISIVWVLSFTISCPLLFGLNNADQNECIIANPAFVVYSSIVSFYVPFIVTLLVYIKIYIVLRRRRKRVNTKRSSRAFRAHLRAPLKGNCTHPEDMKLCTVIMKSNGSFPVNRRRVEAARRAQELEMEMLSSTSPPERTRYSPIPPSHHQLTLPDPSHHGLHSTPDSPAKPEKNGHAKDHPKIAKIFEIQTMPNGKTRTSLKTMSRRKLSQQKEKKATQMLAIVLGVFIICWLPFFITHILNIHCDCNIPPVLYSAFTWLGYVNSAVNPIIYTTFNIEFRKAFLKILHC
Give measured pKi for each item. Keep answers brief.
Give bare numbers, as −log10 of the molar value.

Consider the worked cases shown below.
>  <compound>
CC(C)(C)c1nc(N2CCN(CCCCNC(=O)N3CCN(c4ccc(Cl)c(Cl)c4)CC3)CC2)cc(C(F)(F)F)n1 [Compound 60]

>  <value-reported>
6.24

$$$$
>  <compound>
CC(C)(C)c1nc(N2CCN(CCCCNC(=O)N3CCN(C4CC4)CC3)CC2)cc(C(F)(F)F)n1 [Compound 35]

>  <value-reported>
6.48

$$$$
>  <compound>
CC(C)(C)c1nc(N2CCN(CCCCNC(=O)N3CCC(C#N)(c4ccccc4)CC3)CC2)cc(C(F)(F)F)n1 [Compound 17]

>  <value-reported>
6.07

$$$$
>  <compound>
CC(C)(C)c1nc(N2CCN(CCCCNC(=O)N3CCc4[nH]c5ccccc5c4C3)CC2)cc(C(F)(F)F)n1 [Compound 89]

>  <value-reported>
5.93

$$$$

Look at each compound and report its pKi.
1. Cc1cccc(N2CCN(C(=O)NCCCCN3CCN(c4cc(C(F)(F)F)nc(C(C)(C)C)n4)CC3)CC2)c1 [Compound 22]
2. CC(C)(C)c1nc(N2CCN(CCCCNC(=O)N3CCC(O)(c4ccccc4)CC3)CC2)cc(C(F)(F)F)n1 [Compound 49]
3. CC(C)(C)c1nc(N2CCN(CCCCNC(=O)N3CCN(C(c4ccccc4)c4ccc(Cl)cc4)CC3)CC2)cc(C(F)(F)F)n1 (centres unmarked) [Compound 73]
4. CC(C)(C)c1nc(N2CCN(CCCCNC(=O)N3CCN(c4ccncc4)CC3)CC2)cc(C(F)(F)F)n1 [Compound 31]
5. CC(C)(C)c1nc(N2CCN(CCCCNC(=O)N3CCN(C4CC4)CC3Cc3ccccc3)CC2)cc(C(F)(F)F)n1 (centres unmarked) [Compound 67]
6. CC(C)(C)c1nc(N2CCN(CCCCNC(=O)N3CCN(c4ncccn4)CC3)CC2)cc(C(F)(F)F)n1 [Compound 32]
7. CC(C)(C)c1nc(N2CCN(CCCCNC(=O)N3CCN(C4CC4)CC3c3ccccc3)CC2)cc(C(F)(F)F)n1 (centres unmarked) [Compound 80]
8. Cc1ccc2[nH]c3c(c2c1)CN(C(=O)NCCCCN1CCN(c2cc(C(F)(F)F)nc(C(C)(C)C)n2)CC1)CC3 [Compound 90]

A)
1: 6.03; 2: 5.89; 3: 6.00; 4: 7.01; 5: 6.20; 6: 5.93; 7: 6.06; 8: 5.87

Hi, could you look up pKi for each item in my list?
1. O=C(NCCCCN1CCN(c2cc(C(F)(F)F)nc3ccccc23)CC1)c1cn2ccccc2n1 [Compound 130]
2. Cc1nc(N2CCN(CCCCNC(=O)N3CCN(c4ccccc4)CC3)CC2)cc(C(C)(C)C)n1 [Compound 6]

A)
4.87
4.89
